- System: T1, FX activation peptide 12-mer VAQATSSSGEAP (human)
- T1 peptide: VAQATSSSGEAP-biotin
- Protocol: peptide ELISA
Ends that are not written are not given here.

{"Binder": "Nb 702C12 (VHH, monovalent Nanobody; not shown: C-terminal FLAG3 and HIS6 tag) VHH: EVQLVESGGGVVQPGGSLRLSCVASGRTFSRYAMGWFRQAPGKEREFVAAISRRGGSTNYADSVKGRFTISRDNSKNTVYLQMNSLRPEDTALYYCAADYSSGDGYLDYWGQGTLVTVSS", "ELISA signal relative to background": 1.02}
{"Binder": "Nb 729A04 (VHH, monovalent Nanobody; not shown: C-terminal FLAG3 and HIS6 tag) VHH: EVQLVESGGGVVQPGGSLRLSCAASGFTFSDYAMSWVRQAPGKGLEWVSGITSGGGRTYYADSVKGRFTISRDNSKNTLYLQMNSLRPEDTALYYCAAVRTLGLRGSYDYWGQGTLVTVSS", "ELISA signal relative to background": 0.99}
{"Binder": "Nb 501A02 (VHH, monovalent control Nanobody; also called control Nanobody; not shown: C-terminal FLAG3 and HIS6 tag) VHH: EVQLVESGGGLVQPGGSLRLSCAASGFTFSNYEMSWVRQAPGKGLEWVSDIGSGGGVSTYYADSVKGRFTISRDNAKNTLYLQMNSLKPEDTAMYYCARGWTYGSDGMDYWGKGTLVTVSS", "ELISA signal relative to background": 0.88}
{"Binder": "Nb 730C03 (VHH, monovalent Nanobody; also called Nb 730003; not shown: C-terminal FLAG3 and HIS6 tag) VHH: EVQLVESGGGVVQPGGSLRLSCVASGFTFSDYAMSWVRQAPGKGLEWVSGITSGSGRTYYADSVKGRFTISRDNSKNTVYLQMNSLRPEDTALYYCAAAILRGYRKTYDYWGQGTLVTVSS", "ELISA signal relative to background": 1.24}
{"Binder": "Nb 701C06 (VHH, monovalent Nanobody; not shown: C-terminal FLAG3 and HIS6 tag) VHH: EVQLVESGGGVVQPGGSLRLSCAASGRTFSTYAMGWFRQAPGKEREFVAAISRRGGRTYYADSVKGRFTISRDNSKNTVYLQMNSLRPEDTALYYCAADATARDGLLDYWGQGTLVTVSS", "ELISA signal relative to background": 0.93}
{"Binder": "Nb 729C08 (VHH, monovalent Nanobody; also called Nb 729008; not shown: C-terminal FLAG3 and HIS6 tag) VHH: EVQLVESGGGVVQPGGSLRLSCAASGFTFSDYAMSWVRQAPGKGLEWVSGITGGGRTYYADSVKGRFTISRDNSKNTLYLQMNSLRPEDTALYYCAAAILTRTRRTYDYWGQGTLVTVSS", "ELISA signal relative to background": 1.09}
